tested on: PSMA-expressing LNCAP cancer xenografts; assay: Biodistribution of ^68Ga-labeled PSMA-targeting tracers; assay type: in vivo, mice; details: 1 h post-injection
Catalogue of tumor-to-background contrast ratio Tumor: kidney values
// no unit string in output, number only

- compound: "CCCCCC[C@H](NC(=O)[C@H]1CC[C@H](CNC(=O)CN2CCN(CC(=O)[O-])CCN(CC(=O)[O-])CCN(CC(=O)[O-])CC2)CC1)C(=O)NCCCC[C@H](NC(=O)N[C@@H](CCC(=O)O)C(=O)O)C(=O)O.[68Ga+3] [^68Ga-HTK03026]"
  target.or.test.system: "PSMA-expressing LNCAP cancer xenografts"
  recorded.result: 0.22
- compound: "O=C([O-])CN1CCN(CC(=O)[O-])CCN(CC(=O)NC[C@H]2CC[C@H](C(=O)N[C@@H](Cc3ccc4cc5ccccc5cc4c3)C(=O)NCCCC[C@H](NC(=O)N[C@@H](CCC(=O)O)C(=O)O)C(=O)O)CC2)CCN(CC(=O)[O-])CC1.[68Ga+3] [^68Ga-HTK03027]"
  target.or.test.system: "PSMA-expressing LNCAP cancer xenografts"
  recorded.result: 0.27
- compound: "O=C([O-])CN1CCN(CC(=O)[O-])CCN(CC(=O)NC[C@H]2CC[C@H](C(=O)N[C@@H](Cc3ccc4ccc5cccc6ccc3c4c56)C(=O)NCCCC[C@H](NC(=O)N[C@@H](CCC(=O)O)C(=O)O)C(=O)O)CC2)CCN(CC(=O)[O-])CC1.[68Ga+3] [^68Ga-HTK03029]"
  target.or.test.system: "PSMA-expressing LNCAP cancer xenografts"
  recorded.result: 0.07

Now turn to the next compound.
# compound O=C([O-])CN1CCN(CC(=O)[O-])CCN(CC(=O)NC[C@H]2CC[C@H](C(=O)N[C@@H](Cc3c4ccccc4cc4ccccc34)C(=O)NCCCC[C@H](NC(=O)N[C@@H](CCC(=O)O)C(=O)O)C(=O)O)CC2)CCN(CC(=O)[O-])CC1.[68Ga+3] [^68Ga-HTK03041] ; its tumor-to-background contrast ratio Tumor: kidney = 0.14

* * *

system: PSMA-expressing LNCAP cancer xenografts; assay: Biodistribution of ^68Ga-labeled PSMA-targeting tracers; format: in vivo, mice; settings: 1 h post-injection
The following compounds are listed with their measured Tissue (% ID/g): Liver values.
Reply numerically in % ID/g, unit not repeated.

Completed entries (count: 3):
- compound: "O=C([O-])CN1CCN(CC(=O)[O-])CCN(CC(=O)NC[C@H]2CC[C@H](C(=O)N[C@@H](Cc3ccc4ccc5cccc6ccc3c4c56)C(=O)NCCCC[C@H](NC(=O)N[C@@H](CCC(=O)O)C(=O)O)C(=O)O)CC2)CCN(CC(=O)[O-])CC1.[68Ga+3] [^68Ga-HTK03029]"
  assay.metric: "Tissue (% ID/g): Liver"
  recorded.result: 1.32
- compound: "O=C([O-])CN1CCN(CC(=O)[O-])CCN(CC(=O)NC[C@H]2CC[C@H](C(=O)N[C@@H](Cc3c4ccccc4cc4ccccc34)C(=O)NCCCC[C@H](NC(=O)N[C@@H](CCC(=O)O)C(=O)O)C(=O)O)CC2)CCN(CC(=O)[O-])CC1.[68Ga+3] [^68Ga-HTK03041]"
  assay.metric: "Tissue (% ID/g): Liver"
  recorded.result: 1.38
- compound: "O=C([O-])CN1CCN(CC(=O)[O-])CCN(CC(=O)NC[C@H]2CC[C@H](C(=O)N[C@@H](Cc3ccc4cc5ccccc5cc4c3)C(=O)NCCCC[C@H](NC(=O)N[C@@H](CCC(=O)O)C(=O)O)C(=O)O)CC2)CCN(CC(=O)[O-])CC1.[68Ga+3] [^68Ga-HTK03027]"
  assay.metric: "Tissue (% ID/g): Liver"
  recorded.result: 0.46

// below: Tissue (% ID/g): Liver requested for another compound
# Tissue (% ID/g): Liver measured on PSMA-expressing LNCAP cancer xenografts for item CCCCCC[C@H](NC(=O)[C@H]1CC[C@H](CNC(=O)CN2CCN(CC(=O)[O-])CCN(CC(=O)[O-])CCN(CC(=O)[O-])CC2)CC1)C(=O)NCCCC[C@H](NC(=O)N[C@@H](CCC(=O)O)C(=O)O)C(=O)O.[68Ga+3] [^68Ga-HTK03026] = 0.24
